Property: growth; scope: individual compounds
# Tested on: RPMI-8226 leukemia
# measurementProtocol: NCI-60 one-dose screen, 48 h (100 = growth as untreated, 0 = no growth, -100 = all killed)
# measurementSetup: 10 µM unless noted
# Method: Growth inhibition of the RPMI-8226 human tumor cell line is measured as a screen for anti-cancer activity. Cells are grown in 96 well plates and exposed to the test compound for 48 hours. Compounds are tested at a single concentration, which is 10^-5 M for most compounds. The reported endpoint is percent growth (GI% or GIPRCNT), where numbers from 0 - 100% represent growth inhibition, and numbers from -100% - 0 represent cell death. For example, a value of 40 represents 60% growth inhibition. […]
The panel holds about 83,000 compounds, 20% with a hit somewhere; the sample as a whole holds those more often.
testReadout: growth (%)

compound=Cn1cc(-c2nnc(N)nc2-c2c[nH]c3ccc(Br)cc23)c2cc(Br)cnc21 testreadout=growth number=41.6
compound=COc1ccc(C(=O)/C=C/c2cccc(Cl)c2Cl)cc1S(N)(=O)=O testreadout=growth number=-8.84
compound=O=c1cc(-c2ccccc2)oc2cc(OCCCC[P+](c3ccccc3)(c3ccccc3)c3ccccc3)cc(O)c12 testreadout=growth number=-66.7
compound="CC(=O)OC[C@@]1(C)C2CC[C@]3(C)C(CC=C4C5CC(C)(C)CC[C@]5(C(=O)Nc5ccc(F)cc5)CC[C@]43C)[C@@]2(C)C[C@@H](OC(C)=O)[C@@H]1OC(C)=O (stereo partly specified)" testreadout=growth number=13.5
compound=Cc1c(C(=O)NNC(=O)c2ccc(Cl)cc2)nnn1-c1ccc(Cl)cc1 testreadout=growth number=95.7
compound=Cc1c(C(=O)NNC(=O)Nc2ccc(Cl)cc2)nnn1-c1ccc(Br)cc1 testreadout=growth number=98.7
compound=O=C(/C=C/c1ccc(-c2ccccc2)cc1)c1nc2ccccc2n1Cc1ccc(Br)cc1 testreadout=growth number=14.1
compound=CN(C)CCCNC(=O)c1cc(NC(=O)c2cc(NC(=O)c3ccc(C#Cc4ccccc4)cc3)cn2C)cn1C testreadout=growth number=-49
compound=Cc1ccc(C(=O)C(c2c[nH]c3ccccc23)c2c[nH]c3ccccc23)cc1 testreadout=growth number=-2.33
compound=O=C(NNc1nc2cc(F)ccc2n2c(CN3CCCCC3)ccc12)c1cnccn1 testreadout=growth number=-2.84
compound="COc1cc2c(c(OC)c1OC)C(=O)CC(c1cccc(NC(=O)c3cc(NC(=O)[C@@H](N)CO)ccc3C)c1)O2 (stereo partly specified)" testreadout=growth number=108
compound=CC(=O)Nc1cccc(-c2nc3cc(-c4ccc(O)cc4)ccc3n2C)c1 testreadout=growth number=28.4
compound=Cc1ccc(-c2nnc3ccc(N/N=C/c4ccccc4)nn23)cc1 testreadout=growth number=80.6
compound=COc1cc(OC)cc(-c2cc3ccc(N(C)C)cc3c(=O)[nH]2)c1 testreadout=growth number=29.2
compound="CC1=C(C(=O)OCc2ccccc2)C(c2c(O)cc(O)cc2O)n2c(nc3ccccc32)N1 (stereo unspecified)" testreadout=growth number=81.9
compound=Cn1cc(NC(=O)c2cc(NC(=O)c3ccc(C#Cc4ccccc4)cc3)cn2C)cc1C(=O)NCCCN1CCOCC1 testreadout=growth number=-42.6
compound=COc1ccc(-c2nc3cc(C)ccc3n2CC(=O)N=Nc2c(O)[nH]c3ccc(OC)cc23)cc1 testreadout=growth number=-14.7
compound=CN(C)c1ccnc(CNCCSC2(c3ccc(C(F)(F)F)cc3)c3ccccc3CCc3ccccc32)c1 testreadout=growth number=-47.8
compound="CC1(C)CC[C@]2(C(=O)O)CC[C@]3(C)C(=CCC4[C@@]5(C)C[C@@H](O)[C@@H]6OC(c7ccco7)OC[C@@]6(C)C5CC[C@]43C)C2C1 (stereo partly specified)" testreadout=growth number=15
compound=COc1ccc2cc([C@H](C)C(=O)N/N=C/c3ccc(Br)cc3)ccc2c1 testreadout=growth number=105
compound="CCN1C(=O)N(CC)C2NNC(Sc3c(C(=O)O)c4ccccc4n(C4CCCC4)c3=O)=NC21 (stereo unspecified)" testreadout=growth number=24.8
compound="COc1c(F)ccc(C(=O)Nc2ccc3nc(NC(=O)C4CCCN(S(=O)(=O)c5cccc(C(F)(F)F)c5)C4)sc3c2)c1F (stereo unspecified)" testreadout=growth number=54.4
compound=COc1ccc(C(=O)/C=C/c2ccc(Cl)c(Cl)c2)cc1S(N)(=O)=O testreadout=growth number=-6.75
compound=COc1ccc(NC(=O)Cn2c(/C=C/c3cccc([N+](=O)[O-])c3)nc3ccccc3c2=O)cc1 testreadout=growth number=124
compound=COc1cc2oc(-c3cccc(C(=O)Nc4ccc(Cl)cc4)c3)cc(=O)c2c(OCCNC(=O)[C@H](CCC(=O)OC(C)(C)C)NC(=O)OC(C)(C)C)c1OC testreadout=growth number=78.1
compound=CC(=O)NNc1ccc2nnc(-c3ccccc3)n2n1 testreadout=growth number=115
compound=CCCCCCn1c(O)c(N=Nc2nc(-c3cc4ccccc4oc3=O)cs2)c2ccccc21 testreadout=growth number=60.9
compound=Cc1cc2nc3c4ccccc4n(CCNCCN(C)C)c3nc2cc1C testreadout=growth number=-25.9
compound=O=C(N1c2ccccc2Sc2ccccc21)n1ccc2cccnc21 testreadout=growth number=40.4
compound="CC(=O)OC[C@@]1(C)C2CC[C@]3(C)C(CC=C4C5CC(C)(C)CC[C@]5(C(=O)Nc5ccc(Br)cc5)CC[C@]43C)[C@@]2(C)C[C@@H](OC(C)=O)[C@@H]1OC(C)=O (stereo partly specified)" testreadout=growth number=14.5
compound=COc1ccc(/C=N/NC(=O)Cn2nc(Cc3ccc(OC)cc3)c3onc(C)c3c2=O)cc1 testreadout=growth number=53.7
compound=O=C(Cn1c(/C=C/c2ccccc2)nc2ccccc2c1=O)Nc1ccc(Cl)cc1 testreadout=growth number=86.8
compound=O=C(COc1ccc(NC(=O)Nc2ccc(Cl)c(Cl)c2)cc1)N=Nc1c(O)[nH]c2ccc([N+](=O)[O-])cc12 testreadout=growth number=55.4
compound=COc1ccc(C(=O)/C=C/c2ccc(OC)c(OCc3ccccc3)c2)cc1OC testreadout=growth number=7.98
compound=Clc1cccc(N/N=C/c2c[nH]c3ccc(Br)cc23)n1 testreadout=growth number=1.81
compound=CN(C)c1nc(NCCNS(=O)(=O)c2ccc(C(=O)/C=C/c3ccc(Cl)cc3)cc2)nc(Nc2ccc(F)cc2)n1 testreadout=growth number=-17.6

Reference source: PubChem BioAssay (NCI)
